As shown below, each of these compounds has a reported Activity value.
System: PBMC
Experiment: Toxic induction of TNFalpha level in human PBMC assessed as drug level causing maximal cytokine induction after 24 hrs relative to control
Assay type: toxicity, cell-based
Residues, ends and D or L forms follow the SMILES beside them. *: point of attachment. X1 = CCCCCCCCCCCCCCCC(=O)OCC(C*)OC(=O)CCCCCCCCCCCCCCC; Palmitoyl = CCCCCCCCCCCCCCCC(=O)*

Answered cases to consult:
CC(C)Cn1cnc2c(N)nc3ccccc3c21 [IMIQUIMOD]: 1 µg/mL
CCCc1nc2c(N)nc3ccccc3c2s1: 10 µM
CCOCc1nc2c(N)nc3ccccc3c2n1CC(C)(C)O [RESIQUIMOD]: 1 µM
COCCOc1nc(N)c2[nH]c(=O)n(Cc3ccccc3)c2n1: 1 µM

Now look at this entry.
Entry CCCCCCCCCCCCCCCC(=O)N[C@@H](CSCC(COC(=O)CCCCCCCCCCCCCCC)OC(=O)CCCCCCCCCCCCCCC)C(=O)N[C@@H](CO)C(=O)N[C@@H](CCCCN)C(=O)N[C@@H](CCCCN)C(=O)N[C@@H](CCCCN)C(=O)N[C@@H](CCCCN)C(=O)O (stereo not given in full) (Palmitoyl-C(X1)SKKKK-OH) ; Activity = 0.1 µM

---

System: PBMC
Test: Toxic induction of IL1-beta level in human PBMC assessed as drug level causing maximal cytokine induction after 24 hrs relative to control
Assay type: toxicity, cell-based
Residues, ends and D or L forms follow the SMILES beside them. *: point of attachment. X1 = CCCCCCCCCCCCCCCC(=O)OCC(C*)OC(=O)CCCCCCCCCCCCCCC; Palmitoyl = CCCCCCCCCCCCCCCC(=O)*
Activity listing for selected molecules.

Sample answers from the record:
CC(C)Cn1cnc2c(N)nc3ccccc3c21: 0.1 µg/mL
CCCCCCCCCCCCCCCC(=O)N[C@@H](CSCC(COC(=O)CCCCCCCCCCCCCCC)OC(=O)CCCCCCCCCCCCCCC)C(=O)N[C@@H](CO)C(=O)N[C@@H](CCCCN)C(=O)N[C@@H](CCCCN)C(=O)N[C@@H](CCCCN)C(=O)N[C@@H](CCCCN)C(=O)O (stereo not given in full) (Palmitoyl-C(X1)SKKKK-OH): 1 µM
CCOCc1nc2c(N)nc3ccccc3c2n1CC(C)(C)O: 1 µM

So for COCCOc1nc(N)c2[nH]c(=O)n(Cc3ccccc3)c2n1 , the logged Activity turned out to be 1 µM

Form: molecule = CCCc1nc2c(N)nc3ccccc3c2s1 ; Activity = 3.3 µM
